assay-protocol: solubility of each compound in a solvent
Format: physicochemical
study-conditions: THF, at 20° C., % on weight
Collected Solubility in THF values appear next to each entry.
// return numeric value only (unit: %, not printed)

Sample answers from the record:
INSERT INTO results (compound, value_measured) VALUES
  ('CC(C)c1ccc2nc(C3C(=O)c4ccccc4C3=O)c(O)cc2c1 [D]', 2.28),
  ('CCCCN(CCCC)C(=O)c1ccc2c(c1)C(=O)C(c1nc3ccc(C(C)C)cc3cc1O)C2=O (stereo not shown) [F]', 12.63),
  ('CCCCCCCCOC(=O)c1ccc2c(c1)C(=O)C(c1nc3ccc(CCCC)cc3cc1O)C2=O (stereo not shown) [I, reference compound]', 0.98);

Quick one: Solubility in THF for CCC1(CO)COC(c2ccc3c(c2)C(=O)C(c2nc4ccc(C(C)C)cc4cc2O)C3=O)=N1 (stereo not shown) [G] ?
6.50
